- Tested on: Trypanosoma cruzi
- measurementNotes: Trypanosoma cruzi phosphomannomutase and mannose-1-phosphate guanylyltransferase assay
- Type: functional
- Parameters: scale not given: direction of the effect not stated beside the values
- protocolConditions: 10 µM
parameterMeasured: Percent Effect (%)
Kindly provide the numeric value in % only, without the unit symbol.

CN(Cc1noc(C2CC2)n1)C1CCN(Cc2nnc(C3CC3)o2)C1 (stereo unspecified) = -6.16

Return reported Percent Effect; argument: CCc1ccsc1C(=O)N1CCN(CC(O)CC)CC1 (stereo unspecified)
4.66

For the molecule shown here, Cn1cc(CCC(=O)N2C[C@H]3CC[C@@H]2CN(Cc2ccccc2)C3)cn1 , give the reported Percent Effect.
-1.07

Value lookup for Percent Effect; key = c1cnn(CCN2CCOC(Cn3cncn3)C2)c1 (stereo unspecified)
-0.283

Percent Effect lookup needed for CC(=O)N1CCCN(C(=O)c2oc(Br)cc2C)CC1 , thanks.
2.12

Look up Percent Effect: O=C(CCc1ccccn1)N1CCN(C(=O)CC2CCCCC2)CC1
4.41
